protocol: qHTS of pediatric cancer cell lines to identify multiple opportunities for drug repurposing: Primary screen for SK-N-MC cells (AID 1347093)
experimentalConditions: SK-N-MC viability, CellTiter-Glo luminescence, 48 h; series mostly up to 46 µM
Inconclusive results are not listed. Active and inactive are the calls of the source. The call rests on the fitted dose curve; in most records, active means well fitted cell-killing curve with a large enough effect; inconclusive means small, poorly fitted or top-dose-only effect; inactive means no such curve, though single readings can be large or run the other way.
Classes to choose from: active, inactive

Ask | Recorded test outcome, item Cc1ccccc1C(C(=O)NC1CCCCC1)N(C(=O)Cn1ccnc1C)c1cccc(F)c1 (stereo not drawn)
Reply | active

Ask | Recorded test outcome, item `Clc1cc(Cl)cc(CNc2ncncc2-c2ccc3c(c2)OCO3)c1`
Reply | active

Ask | Recorded test outcome, item `Nc1nc(F)nc2c1ncn2[C@@H]1O[C@H](COP(=O)(O)O)[C@@H](O)[C@H]1O`
Reply | active

Ask | Recorded test outcome, item `O=c1c(O)c(-c2ccc(O)cc2)oc2cc(O)cc(O)c12`
Reply | active

Ask | Recorded test outcome, item `CCOc1ccc(Nc2nc(-c3c(C)nc4ccccn34)cs2)cc1`
Reply | active

---

protocol: High-throughput drug toxicity screening in the BPDCN cell line Cal-1 (AID 1224825);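 further: cells exposed to compounds for 48 h; 100% = DMSO and 0% = bortezomib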
experimentalConditions: Cal-1 BPDCN cell viability, qHTS; at 45.8 µM (top of the series) unless noted
Please assign a class to every record based on measured viability (% of control), with ranges class 1 (below 6%), class 2 (6% to below 70%), class 3 (70% or more)

compound=CC(C)(C)c1cc(C(=O)O)c(NC(=O)Nc2ccc3[nH]ncc3c2)s1 category="class 3"

Ask | Could you place `CC=CC(=O)N(CC)c1ccccc1C` in its proper category? Many thanks.
Reply | class 2

Ask | Could you place `CC[C@@]1(O)C[C@H](O[C@H]2C[C@H](N(C)C)[C@H](O[C@H]3C[C@H](O)[C@H](O[C@H]4CCC(=O)[C@H](C)O4)[C@H](C)O3)[C@H](C)O2)c2c(cc3c(c2O)C(=O)c2c(O)cccc2C3=O)[C@@H]1C(=O)OC` in its proper category? Many thanks.
Reply | class 1

Ask | Could you place `CC(C)[C@H](CO)Nc1nc(Nc2ccc(C(=O)O)c(Cl)c2)c2ncn(C(C)C)c2n1` in its proper category? Many thanks.
Reply | class 1

Ask | Could you place CS(=O)(=O)N(Cc1ccco1)CC(O)Cn1c2ccccc2c2ccccc21 (configuration not stated) in its proper category? Many thanks.
Reply | class 2

Ask | Could you place C=C1C(=O)[C@@]23C(CC[C@@H]1[C@H]2O)[C@@]12CO[C@]3(O)[C@@H](O)[C@@H]1C(C)(C)CC[C@@H]2O (some centres not stated) in its proper category? Many thanks.
Reply | class 1

Ask | Could you place `COc1cc(NC(=O)c2ccc(-c3ccc(Cl)cc3)o2)cc(OC)c1` in its proper category? Many thanks.
Reply | class 2

Ask | Could you place `CCCCCN(C)CCC(O)(P(=O)(O)O)P(=O)(O)O` in its proper category? Many thanks.
Reply | class 3

Ask | Could you place `O=c1cc(-c2ccccc2)oc2cc(O)cc(O)c12` in its proper category? Many thanks.
Reply | class 2

Ask | Could you place `CC[C@H]1OC(=O)[C@H](C)[C@@H](O[C@H]2C[C@@](C)(OC)[C@@H](O)[C@H](C)O2)[C@H](C)[C@@H](O[C@@H]2O[C@H](C)C[C@H](N(C)C)[C@@H]2O)[C@](C)(O)C[C@@H](C)CN(C)[C@H](C)[C@@H](O)[C@]1(C)O` in its proper category? Many thanks.
Reply | class 3

Ask | Could you place `CC(C)C(=O)Nc1ncc(-c2cc(C(F)F)nn2-c2c(Cl)cccc2Cl)s1` in its proper category? Many thanks.
Reply | class 2

---

protocol: Primary qHTS for small molecule stabilizers of the endoplasmic reticulum resident proteome: Secreted ER Calcium Modulated Protein (SERCaMP) assay (AID 1508630)
experimentalConditions: SH-SY5Y GLuc-SERCaMP (Gaussia luciferase released on ER calcium loss) secretion, thapsigargin, luminescence; series mostly up to 38.4 µM
Excerpt: Assay Provider: Brandon K. Harvey Ph.D. National Institute on Drug Abuse, National Institutes of Health, Baltimore, MD Endoplasmic reticulum (ER) dysregulation is associated with human pathologies including neurodegenerative, cardiovascular, muscular, and diabetic conditions. […] To identify such compounds, we performed a quantitative high-throughput screen (qHTS) using the SERCaMP assay, which monitors secretion of ER resident proteins triggered by calcium depletion. […]
Results filed as inconclusive are left out. Active and inactive are the calls of the source. Calls follow the shape of the dose curve; as a rule, active = well fitted inhibition curve with a large enough effect; inconclusive = small, poorly fitted or top-dose-only effect; inactive = no such curve, though single readings can be large or run the other way.
Classes to choose from: active, inactive

// below: answered compounds
compound=CO[C@H]1C=CC=C(C)C(=O)NC2=CC(=O)C(NCCN(C)C)=C(C[C@@H](C)C[C@H](OC)[C@@H](O)[C@@H](C)C=C(C)[C@@H]1OC(N)=O)C2=O category=inactive
compound=CCc1ccc(C=C2SC(=S)NC2=O)cc1 category=inactive
compound=CNC(=O)c1ccccc1Sc1ccc2c(C=Cc3ccccn3)n[nH]c2c1 category=inactive
compound=CC(C)(C)COc1ccc(-n2cc(C(=O)O)cn2)cc1C#N category=inactive

Ask | Recorded test outcome, item `COC(=O)N[C@H](C(=O)N1CCC[C@@H]1c1ncc(-c2ccc(-c3ccc(-c4cnc([C@@H]5CCCN5C(=O)[C@@H](NC(=O)OC)C(C)C)[nH]4)cc3)cc2)[nH]1)C(C)C`
Reply | inactive

Ask | Recorded test outcome, item `O=C1NC(=O)C(=Cc2ccc3c(c2)OC(F)(F)O3)S1`
Reply | inactive

Ask | Recorded test outcome, item `O=C1c2ccccc2-[n+]2ccc3c([nH]c4ccccc43)c21`
Reply | active

Ask | Recorded test outcome, item `COCCCCC(=NOCCN)c1ccc(C(F)(F)F)cc1`
Reply | inactive

Ask | Recorded test outcome, item `c1ccc2c(-c3cnn4cc(-c5ccc(N6CCNCC6)cc5)cnc34)ccnc2c1`
Reply | inactive

Ask | Recorded test outcome, item `O=C(CCN1CCN(C(=O)OCc2cc(Cl)cc(Cl)c2)CC1)c1ccc2[nH]c(=O)oc2c1`
Reply | inactive

---

protocol: qHTS of pediatric cancer cell lines to identify multiple opportunities for drug repurposing: Confirmatory screen for Rh18 cells (AID 1347125);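 further: cells exposed to compound for 48 h; nearly all actives have a fitted effect of over 55% in size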
experimentalConditions: Rh18 rhabdomyosarcoma cells, viability; series mostly up to 45.9 µM
Inconclusive results are not listed. Activity calls are given as the source filed them. Calls come from the whole dose curve; as a rule, active = well fitted cell-killing curve with a large enough effect; inconclusive = small, poorly fitted or top-dose-only effect, or effect the other way; inactive = flat fitted curve, though single readings scatter.
Classes to choose from: active, inactive

// below: answered compounds
compound="Cc1nnc(C(C)C)n1C1C[C@H]2CC[C@@H](C1)N2CC[C@H](NC(=O)C1CCC(F)(F)CC1)c1ccccc1 (some centres undefined)" category=active
compound=Nc1ncnc2c1ncn2[C@@H]1O[C@@H](CO)[C@H](O)[C@H]1O category=inactive
compound=CC1(C)CCC[C@@]2(C)[C@@H]1CC[C@@]1(C)OC(=O)C[C@H]21 category=inactive
compound=O=C1c2ccccc2-[n+]2ccc3c([nH]c4ccccc43)c21 category=active
compound=N[C@@]1(C(=O)O)CS(=O)(=O)[C@H]2[C@H](C(=O)O)[C@H]21 category=inactive
compound=CC1(C)S[C@H]2[C@H](NC(=O)[C@@H](N)c3ccc(O)cc3)C(=O)N2[C@@H]1C(=O)O category=inactive
compound=COc1cc2ncnc(Nc3ccc(F)c(Cl)c3)c2cc1OCCCN1CCOCC1 category=active
compound=COc1ncc(-c2ccc3nccc(-c4ccnnc4)c3c2)cc1NS(=O)(=O)c1ccc(F)cc1F category=active
compound=COc1cccc(-c2cc(=O)c3ccccc3o2)c1N category=inactive
compound=COc1ccc(-c2coc3cc(O)cc(O)c3c2=O)cc1 category=inactive

Ask | Recorded test outcome, item `CCc1ccc(OCc2ccccc2C(=O)Nc2ccc3nc(C)cc(N)c3c2)cc1`
Reply | active

Ask | Recorded test outcome, item `CO[C@H]1C[C@@H]2CC[C@@H](C)[C@@](O)(O2)C(=O)C(=O)N2CCCC[C@@H]2C(=O)O[C@H]([C@H](C)C[C@@H]2CC[C@H](OCCO)[C@H](OC)C2)CC(=O)[C@H](C)C=C(C)[C@@H](O)[C@@H](OC)C(=O)[C@H](C)C[C@H](C)C=CC=CC=C1C`
Reply | inactive

Ask | Recorded test outcome, item `CCCCCCCCCCCC1=C(O)C(=O)C=C(O)C1=O`
Reply | inactive

Ask | Recorded test outcome, item `CC=C(C)C(=O)O[C@H]1C(C)=C[C@]23C(=O)[C@@H](C=C(CO)[C@@H](O)[C@]12O)[C@H]1[C@@H](C[C@H]3C)C1(C)C`
Reply | inactive

---

protocol: Cell Proliferation Assay against the HBL1 Cell Line (AID 651646);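 further: cells exposed to compound for 48 h before reading; 100% = DMSO and 0% = 9.2 µM bortezomib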
experimentalConditions: HBL1 DLBCL cells; at 46.1 µM (top of the series) unless noted
Each entry below carries its recorded viability, percent of control.
Please state the value followed by its unit.

# count of solved cases: 5
compound=CC(C)(C)c1cc(C(=O)O)c(NC(=O)Nc2ccc3[nH]ncc3c2)s1 measuredquantity="viability, percent of control" valueobserved=100%
compound="COc1cccc2c1CCCC2CCCN1CCN(C2CCCCC2)CC1 (stereo unspecified)" measuredquantity="viability, percent of control" valueobserved=28.8%
compound=Cc1ccc(F)c(NC(=O)Nc2ccc(-c3cccc4[nH]nc(N)c34)cc2)c1 measuredquantity="viability, percent of control" valueobserved=8.04%
compound=O=C(N[C@@H](c1ccccc1)[C@@H]1CCCCN1)c1cccc(C(F)(F)F)c1Cl measuredquantity="viability, percent of control" valueobserved=28.1%
compound=CC(=O)N(C)C1(c2ccccc2)CCN(CCC[C@]2(c3ccc(Cl)c(Cl)c3)CCCN(C(=O)c3ccccc3)C2)CC1 measuredquantity="viability, percent of control" valueobserved=1.69%

Ask | Given `CO[C@H]1C=CC=C(C)C(=O)NC2=CC(=O)C(NCCN(C)C)=C(C[C@@H](C)C[C@H](OC)[C@@H](O)[C@@H](C)C=C(C)[C@@H]1OC(N)=O)C2=O` , state its recorded viability, percent of control.
Reply | 4.29%

Source: PubChem BioAssay (NCATS)
